target: HA of virus A/Wisconsin/67/2005 (H3N2) (influenza A virus (H3N2)); test: cell-based or functional assay
// Neutralization titer SK50 lookup, one value per entry

BINDER	Neutralization titer SK50, µg/mL
CR8055 (antibody, V domains shown) VH: EIVLTQSPDFQSVAPKEKVTITCRASRSIGSDLHWFQQRPDQSPKLLIKFASQSMSGVPSRFSGSGSGRDFTLTISSLEAEDAATYYCHQSSSLPLT VL: EVQLVESGGGLVQPGGSLRLSCAASGFTDSVIFMSWVRQAPGKGLECVSIIYIDDSTYYADSVKGRFTISRHNSMGTVFLEMNSLRPDDTAVYYCATESGDFGDQTGPYHYYAMDV	1.07
CR8001 (antibody, V domains shown) VH: EVQLVESGGGLIQPGGSLRLSCAASGFTVSSNYVSWVRQAPGKGLEWLSLIYTGGTTYYADSVKGRFTISRDNSKNTVFLQMNSLRAEDAAMYYCARVSALRFLQWPNYAMDV VL: QSALTQPASVSGSPGRSITISCSGTRSDVGGHNYVSWYQQHPGKAPKLMIYEVSHRPSGVSNRFSGSKSGSTASLTISGLQSEDEADYYCSSYTGEGPLGV	11.9
CR8050 (antibody, V domains shown) VH: EIVMTQSPGTLSLSPGERATLSCRASQSVSRNYLAWYQQKPGLAPRLLISGASSRATGVPDRFSGRGSDTDFTLTISRLEPEDFAVYYCQHYGSVLVA VL: QVQLQESGPGLVKPSETLSLTCTVSGGSVSSGTYYWSWIRQPPGKGLEWIGDISYSGSTNYNPSLKSRVTISRDTSKNLVSLKLTSVTAADTAVHYCARAMAAYNYDRGGYNDYYYMDV	1.77
